Experiment: VP16 counterscreen qHTS for inhibitors of ROR gamma transcriptional activity
Conditions: Drosophila S2 Gal4-VP16 UAS-luciferase, luminescence, 20 h; series mostly up to 53.6 µM
About 11,000 (3.5%) of roughly 310,000 compounds were called active. Another 8% or so got no clear call; they are omitted. Calls follow the shape of the dose curve; as a rule, active = well fitted inhibition curve with a large enough effect; inconclusive = small, poorly fitted or top-dose-only effect, or effect the other way; inactive = flat fitted curve, though single readings scatter. Only a selection was taken, and actives are over-represented in it overall.
Bench note: report the call from y (active), n (inactive)

C=C(C)COc1ccc(-c2nc(N)ncc2-c2ccccc2OC)c(O)c1 :: n
FC(F)(F)C1CCCN(c2nsc3ccccc23)C1 (configuration not stated) :: y
Nc1nnn(CC(=O)N/N=C/c2ccc(O)cc2)n1 :: n
O=C(Nc1ccccc1)/C(=C/c1ccc([N+](=O)[O-])cc1)NC(=O)c1ccccc1 :: n
Cc1ccc(CSCC2Nc3ccc(C(=O)N4CCN(c5ccc(F)cc5)CC4)cc3NC2=O)cc1 (configuration not stated) :: n
Cc1ccc(NC(=S)N(CCCN2CCC(C)CC2)Cc2ccco2)cc1 :: n

INPUT: Please let me know the test result on file for Cc1cccc(NC(=O)c2sc(-c3ccccc3)nc2-c2ccc([N+](=O)[O-])cc2)c1 .
OUTPUT: n

INPUT: Given CCCCNC(=O)CN1C(=O)NC(Cc2ccccc2)(Cc2ccccc2)C1=O , state the outcome it received in this test.
OUTPUT: n

INPUT: Which outcome did this test record for the molecule O=C(NCC(=O)N1CCN(c2ccccc2O)CC1)c1ccc2ccccc2c1 ?
OUTPUT: n

INPUT: Called result for CCOc1ccc(-c2n[nH]c(C)c2-c2ccccn2)c(O)c1
OUTPUT: n

INPUT: Test call, this molecule: CCCCNC(=O)c1cn(CC)c2cc(N3CCN(C(=O)c4ccco4)CC3)c(F)cc2c1=O
OUTPUT: n

INPUT: Lab log entry: COc1cc(/C=N\NC(=O)C2C(=O)NCC2c2ccccc2)cc(OC)c1O (configuration not stated) — outcome as called in the assay?
OUTPUT: n

INPUT: Field: outcome | Entry: C=C(C)COc1ccc(-c2ncncc2-c2ccc(OC)cc2)c(O)c1
OUTPUT: n

INPUT: So what was the verdict on CC(NC(=S)Nc1ccccc1)C1COc2ccccc2O1 (configuration not stated) in this test?
OUTPUT: y

====

Experiment: VP16 counterscreen qHTS for inhibitors of ROR gamma transcriptional activity; also: potency is read from the fitted curve at half-maximal effect
Settings: Drosophila S2 Gal4-VP16 UAS-luciferase, luminescence, 20 h; series mostly up to 53.6 µM
About 11,000 (3.5%) of roughly 310,000 compounds were called active. Another 8% or so got no clear call; they are omitted. The list comes from a sample in which actives are over-represented; it also holds close analogues and randomly drawn compounds.
measurement.label: Potency

C=C1C(=CC=C2CCC[C@@]3(C)[C@@H]2CC[C@H]3[C@H](C)CCCC(C)C)C[C@@H](O)C[C@@H]1O :: inactive
Cc1cc2cc(CNC(=O)c3ccc(S(=O)(=O)N4CCOCC4)cc3)ccc2[nH]1 :: inactive
O=C(Nc1nc(-c2cccnc2)cs1)c1ccccc1F :: inactive
Cc1ccc(NS(=O)(=O)c2ccc(C)c(NC(=O)COc3ccc4ccccc4c3)c2)c(C)c1 :: inactive
COc1ccccc1CN1CC(C(=O)NCCc2cn[nH]c2)CCC1=O (configuration not stated) :: inactive
COc1ccc(C(=O)NCCn2nc(C)cc2C)cc1OC1CCN(C(C)=O)CC1 :: inactive
Cc1ccc(-c2csc(NNC(=O)c3ccccc3)n2)cc1 :: 7.08 µM (active)
Clc1cccc(Cl)c1OCCOCCNCc1ccccc1 :: inactive

INPUT: Output measured Potency for this item: CCc1cccc(CC)c1NC(=S)NCc1ccc2[nH]c(C)cc2c1
OUTPUT: 11.2 µM (active)

INPUT: Complete the entry with Potency for Cc1ccc(Nc2nc(-c3sc(NC(=O)c4ccccc4)nc3C)cs2)cc1
OUTPUT: inactive

INPUT: Consider the compound Cc1sc2nc(SCCO)n(-c3ccccc3)c(=O)c2c1C . State its measured Potency.
OUTPUT: inactive

====

Assay: VP16 counterscreen qHTS for inhibitors of ROR gamma transcriptional activity;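 also: Gal4-VP16 expression switched on by copper sulfate through the metallothionein promoter; nearly all actives have a fitted effect of over 50% in size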
Conditions: Drosophila S2 Gal4-VP16 UAS-luciferase, luminescence, 20 h; series mostly up to 53.6 µM
The whole screen tested about 310,000 compounds, of which about 11,000 (3.5%) were called active. Not shown: some 8% with an inconclusive outcome. Calls come from the whole dose curve; as a rule, active = well fitted inhibition curve with a large enough effect; inconclusive = small, poorly fitted or top-dose-only effect, or effect the other way; inactive = flat fitted curve, though single readings scatter. The entries come from a sample that favours actives as a whole.
Pick from active, inactive when you respond.

Study these solved cases before continuing.
CC(=O)c1cccc(OCc2cc(C(=O)NC(C)Cc3cccnc3)no2)c1 (stereo unspecified) :: inactive
CCN(C(=O)C1CCCN(c2nc(-c3ccc(OC)cc3)no2)C1)c1ccc(OC)cc1 (stereo unspecified) :: inactive

INPUT: Fill in: this test's call for CC(=O)Nc1ccc(C(=O)N(C2=NC(C)CS2)c2ccc(Cl)cc2)cc1 (stereo unspecified) is ___
OUTPUT: inactive

INPUT: Please share the test call associated with Cn1cccc1C(=O)N1CCc2ccccc2C1 .
OUTPUT: inactive

INPUT: What classification did O=C(NCCCN1CCCC1=O)C(=O)NCC1OCCN1S(=O)(=O)c1ccc(Br)cc1 (stereo unspecified) end up with in this test?
OUTPUT: inactive

====

Assay: VP16 counterscreen qHTS for inhibitors of ROR gamma transcriptional activity;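 also: Gal4-VP16 expression switched on by copper sulfate through the metallothionein promoter; nearly all actives have a fitted effect of over 50% in size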
Conditions: Drosophila S2 Gal4-VP16 UAS-luciferase, luminescence, 20 h; series mostly up to 53.6 µM
The campaign covered roughly 310,000 compounds. About 11,000 (3.5%) were called active. Another 8% or so got no clear call; they are omitted. Calls follow the shape of the dose curve; as a rule, active = well fitted inhibition curve with a large enough effect; inconclusive = small, poorly fitted or top-dose-only effect, or effect the other way; inactive = flat fitted curve, though single readings scatter. The full list was thinned out, with actives kept by preference.
Give your call using only these classes: 1 (yes) (active), 0 (no) (inactive)

CCOC(=O)N1CCN(S(=O)(=O)c2ccc(Br)cc2)CC1 :: 0 (no)
C=CCn1c(CCc2ccc(OC(C)C)cc2)n[nH]c1=S :: 0 (no)

INPUT: Recorded test call requested for Cc1ccc(N/C=C/C(=O)c2ccccc2)cc1C
OUTPUT: 0 (no)

INPUT: Status in this test for CC(C)=N/N=C1/NC(=O)C(Cc2ccccc2)S1 (centres undefined) ?
OUTPUT: 1 (yes)

INPUT: In this assay, the call recorded for Nc1nc(-c2ccccc2)cc(-c2ccccc2)n1 was what?
OUTPUT: 0 (no)

INPUT: Test call for this molecule, please: CN(CC(=O)NCc1ccc(Cl)cc1)S(=O)(=O)c1cccs1
OUTPUT: 0 (no)

INPUT: Test call, this molecule: C=CCn1c(=S)sc2c(=O)[nH]c(C)nc21
OUTPUT: 0 (no)

INPUT: What outcome does the record of this test show for CC(C)Oc1ccc(CCc2n[nH]c(=S)n2Cc2ccccc2)cc1 ?
OUTPUT: 1 (yes)

====

Assay: VP16 counterscreen qHTS for inhibitors of ROR gamma transcriptional activity;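 also: Gal4-VP16 expression switched on by copper sulfate through the metallothionein promoter; nearly all actives have a fitted effect of over 50% in size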
Settings: Drosophila S2 Gal4-VP16 UAS-luciferase, luminescence, 20 h; series mostly up to 53.6 µM
About 11,000 (3.5%) of roughly 310,000 compounds were called active. About 8% were inconclusive and are not listed. The call rests on the fitted dose curve; in most records, active means well fitted inhibition curve with a large enough effect; inconclusive means small, poorly fitted or top-dose-only effect, or effect the other way; inactive means flat fitted curve, though single readings scatter. This is one part of a sample in which actives are shown more often than they occur.
A correct response names exactly one class from active, inactive

INPUT: Any idea what this test logged for CCOC(=O)c1c(-c2ccc(C)cc2)csc1/N=C(\C)C1=C(O)c2ccccc2C1=O ?
OUTPUT: inactive

====

Assay: VP16 counterscreen qHTS for inhibitors of ROR gamma transcriptional activity;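 also: Gal4-VP16 expression switched on by copper sulfate through the metallothionein promoter; nearly all actives have a fitted effect of over 50% in size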
Conditions: Drosophila S2 Gal4-VP16 UAS-luciferase, luminescence, 20 h; series mostly up to 53.6 µM
The whole screen tested about 310,000 compounds, of which about 11,000 (3.5%) were called active. Another 8% or so got no clear call; they are omitted. Calls follow the shape of the dose curve; as a rule, active = well fitted inhibition curve with a large enough effect; inconclusive = small, poorly fitted or top-dose-only effect, or effect the other way; inactive = flat fitted curve, though single readings scatter. This is one part of a sample in which actives are shown more often than they occur.
Give one outcome, nothing more. List: 1.0 = active, 0.0 = inactive

Recorded results for 10 compounds are shown here.
COCCN(C(=O)CCC(=O)Nc1nccs1)C(C(=O)NCCC(C)C)c1ccc(F)cc1 (stereo unspecified) :: 1.0
COc1cccc(N(C(=O)c2snc(C(N)=O)c2N)C(C(=O)NCC2CCCO2)c2c[nH]c3ccccc23)c1 (stereo unspecified) :: 0.0
COCCN(C(=O)CCC(=O)Nc1nccs1)C(C(=O)NC(C)(C)C)c1ccc(Cl)cc1 (stereo unspecified) :: 0.0
CCOCCCN(C)C1CCN(C(=O)c2oc3ccccc3c2NC(=O)COc2cccc(C)c2)CC1 :: 0.0
CCOC(=O)C1(O)CC(C)=NN1C(=O)c1cccc(Br)c1 (stereo unspecified) :: 0.0
CC(C)CCn1c(=O)c2c(nc3n2CCCN3Cc2ccccc2)n(C)c1=O :: 0.0
CC(C)(C)C1CCC(=NNC(=O)c2ccc(Br)o2)CC1 (stereo unspecified) :: 0.0
O=C(NCCOc1ccccc1)c1ccccc1 :: 0.0
COCCN(C(=O)CCC(=O)Nc1ccccn1)C(C(=O)NCCC(C)C)c1ccc(OC)cc1 (stereo unspecified) :: 0.0
CCOC(CNC(=O)C1CCN(S(=O)(=O)c2ccc3nc4c(c(C(=O)O)c3c2)CC(C)CC4)CC1)OCC (stereo unspecified) :: 0.0

INPUT: Could you check what this test reported for CC1CCCCN1C(=O)CCS(=O)(=O)Cc1ccccc1 (stereo unspecified) ?
OUTPUT: 0.0

INPUT: Recorded test outcome, item CC1CC(=S)Nc2ccccc2N1Cc1ccccc1 (stereo unspecified)
OUTPUT: 1.0

INPUT: Could you kindly confirm the outcome this assay logged for CC(C)(C)C1CCC(=NNC(=O)c2cc(-c3ccccc3)n[nH]2)CC1 (stereo unspecified) ?
OUTPUT: 1.0

INPUT: Call for entry CCOC(=O)c1cccc(NC(=O)C2CCN(c3ncnc4c3nc3n4CCCCC3)CC2)c1 :
OUTPUT: 0.0

INPUT: Entry CC1CC(C)(C)NC(=S)N1CCC(=O)N1CCN(Cc2ccccc2)CC1 (stereo unspecified) : call = ?
OUTPUT: 0.0

INPUT: Field: outcome | Entry: CCN(CC)c1ccc(C(=O)Nn2c(C)nc3ccccc3c2=O)cc1
OUTPUT: 0.0

INPUT: What did the test return for CCCOc1ccc(C(=O)NCCc2ccccc2)cc1 ?
OUTPUT: 1.0

Value source: PubChem BioAssay AID2546
